Heads up, these compounds all have GI50 values measured for SiHa.
Expressed in nM, but write only the number.

See these solved cases before continuing.
INSERT INTO results (compound, display_unit, val) VALUES
  ('COc1ccc(-c2nnc(-c3cc(OC)c(OC)c(OC)c3)o2)cc1OCCCOc1cc2c(cc1OC)C(=O)N1CCC[C@H]1C=N2', 'nM', 180),
  ('COc1cc2c(cc1O)N=C[C@@H]1CCCN1C2=O', 'nM', 170),
  ('COc1cccc2c1C(=O)c1c(O)c3c(c(O)c1C2=O)C[C@@](O)(C(=O)CO)C[C@@H]3O[C@H]1C[C@H](N)[C@H](O)[C@H](C)O1 [DOXORUBICIN]', 'nM', 170),
  ('COc1ccc(-c2nnc(-c3ccc(F)cc3)o2)cc1OCCCOc1cc2c(cc1OC)C(=O)N1CCC[C@H]1C=N2', 'nM', 170),
  ('COc1ccc(-c2nnc(-c3ccc(C(F)(F)F)cc3)o2)cc1OCCCCOc1cc2c(cc1OC)C(=O)N1CCC[C@H]1C=N2', 'nM', 170),
  ('COc1ccc(-c2nnc(-c3ccc(F)cc3)o2)cc1OCCCCCOc1cc2c(cc1OC)C(=O)N1CCC[C@H]1C=N2', 'nM', 120);

Ask: Give the reported GI50 for `COc1ccc(-c2nnc(-c3ccc(C(F)(F)F)cc3)o2)cc1OCCCCCOc1cc2c(cc1OC)C(=O)N1CCC[C@H]1C=N2` (system: SiHa).
Reply: 120

Ask: Look up GI50 with SiHa for this compound: `COc1ccc(-c2nnc(-c3cc(OC)c(OC)c(OC)c3)o2)cc1OCCCCOc1cc2c(cc1OC)C(=O)N1CCC[C@H]1C=N2`
Reply: 130

Ask: Fill in the recorded GI50 for this compound, with SiHa as test system: `COc1ccc(-c2nnc(-c3ccc(OC)c(OCCCOc4cc5c(cc4OC)C(=O)N4CCC[C@H]4C=N5)c3)o2)cc1OC`
Reply: 150

Ask: For SiHa, provide GI50 of `COc1ccc(-c2nnc(-c3ccc(OC)c(OCCCCOc4cc5c(cc4OC)C(=O)N4CCC[C@H]4C=N5)c3)o2)cc1OC` please.
Reply: 130
